Source listed as paper PMC12844744.

# experimentNotes: Plasma pharmacokinetics (non-compartmental analysis), healthy Wistar rats
# Type: in vivo
# conditionsUsed: rat, plasma, iv, i.v. 50 mg/kg, NCA, mean ± SD, n = 6, read-out: t1/2, half-life (converted)
reportedEndpoint: half-life (h)
Your answer should be a plain number; it is taken to be in h.

Exam item: I have this compound here, C=CC(C)(O)CCC=C(C)C (stereo not shown) [LIN, 3,7-dimethyl-1,6-octadien-3-ol] , and I need its recorded half-life.
Marked response: 6.6

----------
# experimentNotes: Plasma pharmacokinetics (non-compartmental analysis), healthy Wistar rats
# Format: in vivo
# conditionsUsed: rat, plasma, iv, i.v. 50 mg/kg, NCA, mean ± SD, n = 6, read-out: Vd, Volume of Distribution
reportedEndpoint: Vd (L/kg)
Your answer should be a plain number; it is taken to be in L/kg.

Exam item: I have this compound here, C=CC(C)(O)CCC=C(C)C (stereo not shown) , and I need its recorded Vd.
Marked response: 25.2

----------
# experimentNotes: Plasma pharmacokinetics (non-compartmental analysis), healthy Wistar rats
# Format: in vivo
# conditionsUsed: rat, plasma, oral 100 mg/kg, NCA, mean ± SD, n = 6, read-out: MRT, Mean Residence Time
reportedEndpoint: MRT (h)
Your answer should be a plain number; it is taken to be in h.

Exam item: I have this compound here, C=CC(C)(O)CCC=C(C)C (stereo not shown) [LIN, 3,7-dimethyl-1,6-octadien-3-ol] , and I need its recorded MRT.
Marked response: 1.97
